subject-of-test: T1, receptor for TARC on Jurkat cell and certain other T-cells
T1 construct: also called TARC receptor; receptors for TARC
protocol: displacement of 2 nM 125I-labeled TARC from Jurkat cells by unlabeled TARC, Scatchard analysis
recorded-metric: pKd
Answer as the number alone; pKd is minus log10 of concentration in mol/L.

Problem: Return reported pKd. Input binder: human TARC (Thymus and Activation-Regulated Chemokine), mature secreted form, expressed in and purified from insect cells (ligand, also called hTARC; unlabeled TARC) ARGTNVGRECCLEYFKGAIPLRKLKTWYQTSEDCSRDAIVFVTVQGRAICSDPNNKRVKNAVKYLQSLERS
Solution: 8.68

Sourced from patent US6793917
